molecular target: GSK-3β (Homo sapiens, UniProt P49841)
Sequence (P49841 whole entry): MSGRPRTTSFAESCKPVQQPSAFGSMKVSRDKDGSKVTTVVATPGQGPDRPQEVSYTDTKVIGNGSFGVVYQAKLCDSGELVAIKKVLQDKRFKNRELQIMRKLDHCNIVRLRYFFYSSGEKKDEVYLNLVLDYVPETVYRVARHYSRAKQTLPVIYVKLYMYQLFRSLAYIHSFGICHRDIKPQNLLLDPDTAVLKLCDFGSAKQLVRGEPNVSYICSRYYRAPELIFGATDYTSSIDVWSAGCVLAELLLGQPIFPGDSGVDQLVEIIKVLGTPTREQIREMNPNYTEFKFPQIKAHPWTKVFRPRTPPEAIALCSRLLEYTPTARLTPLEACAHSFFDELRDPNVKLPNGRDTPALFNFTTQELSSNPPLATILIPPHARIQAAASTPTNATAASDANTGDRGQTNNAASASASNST
quantity-name: pKi
Please note pKi is a logarithmic value: minus log10 of concentration in mol/L. Answer with that number alone.

Given the molecule `O=C(Nc1cc(-c2ccc(-c3ncon3)s2)ccn1)C1CC1` and test system GSK-3β (Homo sapiens, UniProt P49841), the measured pKi is 7.22

====

molecular target: GSK-3β (Homo sapiens, UniProt P49841)
pIC50: −log10 of the molar value.
Would you please tag the item rule met when its pIC50 is 6 or above, and rule not met when it is below?

CS(=O)(=O)N1CC=C(c2ccnc(NC(=O)C3CC3)c2)C1 = rule not met
CC(=O)N1CC=C(c2ccnc(NC(=O)C3CC3)c2)C1 = rule met
NC(=O)N1CC=C(c2ccnc(NC(=O)C3CC3)c2)C1 = rule met

Answer whether pIC50 of `CCCS(=O)(=O)N1CC=C(c2ccnc(NC(=O)C3CC3)c2)C1` is greater than or equal to 6.
rule not met

====

Parameter IC50, tested on GSK-3β (Homo sapiens), listed per item.
The figure you give is taken to be in µM; do not add the unit.

In the examples that follow, each entry is paired with its recorded IC50.
NCCCS(=O)(=O)N1CC=C(c2ccnc(NC(=O)C3CC3)c2)C1 = 9.99
N#Cc1cccc(-c2ccnc(NC(=O)C3CC3)c2)c1 = 0.952
O=C(Nc1cc(-c2ccc(-c3ncon3)s2)ccn1)C1CC1 = 0.07
N#Cc1ccc(-c2ccnc(NC(=O)C3CC3)c2)cc1 = 1.13

The measured IC50 that `NCCS(=O)(=O)N1CC=C(c2ccnc(NC(=O)C3CC3)c2)C1` showed for GSK-3β (Homo sapiens) is 1.37

I looked up `N#Cc1ccc(-c2ccnc(NC(=O)C3CC3)c2)s1` and its IC50 for GSK-3β (Homo sapiens) was 0.146

IC50 value, target or system GSK-3β (Homo sapiens), for `O=C(Nc1cc(-c2cccc(-c3ncon3)c2)ccn1)C1CC1` : 0.898

GET /values?item= O=C(Nc1cc(C2=CCN(C[C@@H]3CCCN3)C2)ccn1)C1CC1 [(S)-15] &system= GSK-3β (Homo sapiens) returns IC50: 11.3

Entry `O=C(Nc1cc(-c2ccc(-c3ncon3)nc2)ccn1)C1CC1` , GSK-3β (Homo sapiens) data, IC50 value: 0.185

Form: item `NCCC(=O)N1CC=C(c2ccnc(NC(=O)C3CC3)c2)C1` ; test system GSK-3β (Homo sapiens); IC50: 1.36
